molecular target: UniProt:P61964; assay: Surface Plasmon Resonance (SPR) assay; assay type: binding; design: Full length WDR5 with an N-terminal His tag and C-terminal AviTag; His tag (N); made in house; host or cells: E. coli; details: read-out: SPR Kd
Readout label: pKd
API: returns pKd as number; meaning -log10 of concentration in mol/L.

Some entries whose results are on file:
| Molecule | System name | pKd |
| --- | --- | --- |
| C[C@@H]1CN(c2ncc(-c3c(F)cc(N4CCN(C)[C@@H](C)C4)c(NC(=O)c4c[nH]c(=O)cc4C(F)F)c3F)cn2)CCO1 [Example 129] | UniProt:P61964 | 9.47 |
| C[C@@H]1CN(c2nccc(-c3c(F)cc(N4C[C@@H](C)N(C)[C@@H](C)C4)c(NC(=O)c4c[nH]c(=O)cc4C(F)(F)F)c3F)n2)C[C@H](C)O1 [Example 77] | UniProt:P61964 | 8.95 |
| C[C@@H]1CN(c2cc(F)c(C3=CCN(c4ncc(C#N)s4)C3)c(F)c2NC(=O)c2c[nH]c(=O)cc2C(F)(F)F)C[C@H](C)N1C [Example 150] | UniProt:P61964 | 9.28 |
| C[C@@H]1CN(c2ccc(-c3c(F)cc(N4CCN(C)[C@@H](C)C4)c(NC(=O)c4cn(C)c(=O)cc4C(F)F)c3F)cn2)C[C@H](C)O1 [Example 175] | UniProt:P61964 | 8.80 |

Query :: Specify pKd for C[C@@H]1CN(c2ncc(-c3c(F)cc(N4C[C@@H](C)N(C)[C@@H](C)C4)c(NC(=O)c4c[nH]c(=O)cc4C(F)(F)F)c3F)cn2)C[C@H](C)O1 [Example 8] and stop.
Result :: 9.09

Query :: Give the reported value of pKd for this record: C[C@H]1CN(c2cc(F)c(C3=CCCN(c4ncccn4)C3)c(F)c2NC(=O)c2c[nH]c(=O)cc2C(F)F)CCN1C [Example 54]
Result :: 8.42

Ref: patent US20200385371A1
